Assay: Tmax in human at 100 mg administered with fat meal every 12 hrs for 8 days measured on day 8
Assay type: ADME, organism-based
Conditions: in vivo
Readout Name: Tmax (h)
Numbers only here, please. The scale is h.

Task: Look up Tmax: Cn1c(=O)c(C(=O)NCCO)c(O)c2ncc(Cc3ccc(F)cc3)cc21 [GSK-364735]
Output: 3.75

====

Test: Terminal elimination half life in fasted human at 100 mg administered as single dose
Type: ADME, organism-based
Details: in vivo, read-out: beta t1/2 (converted)
Readout Name: half-life (h)
Numbers only here, please. The scale is h.

Task: Look up half-life: Cn1c(=O)c(C(=O)NCCO)c(O)c2ncc(Cc3ccc(F)cc3)cc21 [GSK-364735]
Output: 2.9

====

Assay: Terminal elimination half life in iv dosed dog
Assay type: ADME, organism-based, Canis lupus familiaris
Conditions: in vivo, read-out: beta t1/2 (converted)
Readout Name: half-life
Give me the value, and tack the unit on after it.

Task: Look up half-life: `Cn1c(=O)c(C(=O)NCCO)c(O)c2ncc(Cc3ccc(F)cc3)cc21`
Output: 1.5 h

====

Assay: Tmax in fasted human at 200 mg administered as single dose
Assay type: ADME, organism-based
Conditions: in vivo
Readout Name: Tmax (h)
Numbers only here, please. The scale is h.

Task: Look up Tmax: `Cn1c(=O)c(C(=O)NCCO)c(O)c2ncc(Cc3ccc(F)cc3)cc21`
Output: 2.5

====

Assay: Apparent oral clearance in fasted human at 200 mg administered as single dose
Format: ADME, organism-based
Conditions: in vivo
Readout Name: CL/F
Give me the value, and tack the unit on after it.

Task: Look up CL/F: `Cn1c(=O)c(C(=O)NCCO)c(O)c2ncc(Cc3ccc(F)cc3)cc21`
Output: 600 mL/min

====

Experiment: Apparent oral clearance in human at 400 mg administered with fat meal as single dose
Format: ADME, organism-based
Conditions: in vivo
Readout Name: CL/F (mL/min)
Numbers only here, please. The scale is mL/min.

Task: Look up CL/F: `Cn1c(=O)c(C(=O)NCCO)c(O)c2ncc(Cc3ccc(F)cc3)cc21`
Output: 783

====

Assay: AUC (0 to 12 hrs) in human at 200 mg administered with fat meal every 12 hrs for 8 days measured on day 8
Format: ADME, organism-based
Parameters: dose 200 mg, time < 12 hr
Details: plasma
Readout Name: AUC at 12 h (ng·h/mL)
Numbers only here, please. The scale is ng·h/mL.

Task: Look up AUC at 12 h: `Cn1c(=O)c(C(=O)NCCO)c(O)c2ncc(Cc3ccc(F)cc3)cc21`
Output: 9600

====

Assay: Terminal elimination half life in human at 50 mg administered with fat meal every 12 hrs for 8 days measured on day 8
Format: ADME, organism-based
Conditions: in vivo, read-out: beta t1/2 (converted)
Readout Name: half-life

Task: Look up half-life: `Cn1c(=O)c(C(=O)NCCO)c(O)c2ncc(Cc3ccc(F)cc3)cc21`
Output: 3.7 h

====

Assay: Apparent oral clearance in fasted human at 100 mg administered as single dose
Format: ADME, organism-based
Settings: in vivo
Readout Name: CL/F (mL/min)
Numbers only here, please. The scale is mL/min.

Task: Look up CL/F: `Cn1c(=O)c(C(=O)NCCO)c(O)c2ncc(Cc3ccc(F)cc3)cc21`
Output: 317

====

Assay: Oral bioavailability in dog
Assay type: ADME, organism-based, Canis lupus familiaris
Settings: in vivo
Readout Name: bioavailability (%)
Numbers only here, please. The scale is %.

Task: Look up bioavailability: Cn1c(=O)c(C(=O)NCCO)c(O)c2ncc(Cc3ccc(F)cc3)cc21 [GSK-364735]
Output: 6

====

Test: Apparent oral clearance in human at 400 mg administered with fat meal daily for 8 days measured on day 1
Assay type: ADME, organism-based
Settings: in vivo
Readout Name: CL/F (mL/min)
Numbers only here, please. The scale is mL/min.

Task: Look up CL/F: Cn1c(=O)c(C(=O)NCCO)c(O)c2ncc(Cc3ccc(F)cc3)cc21 [GSK-364735]
Output: 433

====

Experiment: Tmax in human at 400 mg administered with fat meal daily for 8 days measured on day 1
Assay type: ADME, organism-based
Conditions: in vivo
Readout Name: Tmax (h)
Numbers only here, please. The scale is h.

Task: Look up Tmax: Cn1c(=O)c(C(=O)NCCO)c(O)c2ncc(Cc3ccc(F)cc3)cc21 [GSK-364735]
Output: 5

====

Experiment: Terminal elimination half life in human at 100 mg administered with fat meal every 12 hrs for 8 days measured on day 8
Assay type: ADME, organism-based
Details: in vivo, read-out: beta t1/2 (converted)
Readout Name: half-life (h)
Numbers only here, please. The scale is h.

Task: Look up half-life: `Cn1c(=O)c(C(=O)NCCO)c(O)c2ncc(Cc3ccc(F)cc3)cc21`
Output: 4.2

====

Organism: Homo sapiens
Experiment: Protein binding in human plasma by equilibrium dialysis assay
Settings: read-out: PB
Readout Name: fraction unbound
Note: the reply should be a number with no unit written.

Task: Look up fraction unbound: Cn1c(=O)c(C(=O)NCCO)c(O)c2ncc(Cc3ccc(F)cc3)cc21 [GSK-364735]
Output: 0.01

====

Assay: Terminal elimination half life in fasted human at 400 mg administered as single dose
Assay type: ADME, organism-based
Settings: in vivo, read-out: beta t1/2 (converted)
Readout Name: half-life (h)
Numbers only here, please. The scale is h.

Task: Look up half-life: `Cn1c(=O)c(C(=O)NCCO)c(O)c2ncc(Cc3ccc(F)cc3)cc21`
Output: 6.6

====

Assay: AUC (0 to infinity) in fasted human at 200 mg administered as single dose
Format: ADME, organism-based
Parameters: dose 200 mg, time infinity
Settings: plasma
Readout Name: AUC(0-inf) (ng·h/mL)
Numbers only here, please. The scale is ng·h/mL.

Task: Look up AUC(0-inf): `Cn1c(=O)c(C(=O)NCCO)c(O)c2ncc(Cc3ccc(F)cc3)cc21`
Output: 5500

====

Assay: AUC (0 to infinity) in human at 400 mg administered with fat meal daily for 8 days measured on day 1
Format: ADME, organism-based
Set-up: dose 400 mg, time infinity
Conditions: plasma
Readout Name: AUC(0-inf) (ng·h/mL)
Numbers only here, please. The scale is ng·h/mL.

Task: Look up AUC(0-inf): Cn1c(=O)c(C(=O)NCCO)c(O)c2ncc(Cc3ccc(F)cc3)cc21 [GSK-364735]
Output: 15000

====

Assay: Cmax in human at 200 mg administered with fat meal every 12 hrs for 8 days measured on day 8
Assay type: ADME, organism-based
Design: dose 200 mg
Details: in vivo
Readout Name: Cmax (ng/mL)
Numbers only here, please. The scale is ng/mL.

Task: Look up Cmax: `Cn1c(=O)c(C(=O)NCCO)c(O)c2ncc(Cc3ccc(F)cc3)cc21`
Output: 1600

====

Test: Tmax in human at 200 mg administered with fat meal every 8 hrs for 8 days measured on day 8
Format: ADME, organism-based
Details: in vivo
Readout Name: Tmax (h)
Numbers only here, please. The scale is h.

Task: Look up Tmax: `Cn1c(=O)c(C(=O)NCCO)c(O)c2ncc(Cc3ccc(F)cc3)cc21`
Output: 4

====

Test: Tmax in human at 200 mg administered with fat meal every 12 hrs for 8 days measured on day 1
Type: ADME, organism-based
Conditions: in vivo
Readout Name: Tmax (h)
Numbers only here, please. The scale is h.

Task: Look up Tmax: Cn1c(=O)c(C(=O)NCCO)c(O)c2ncc(Cc3ccc(F)cc3)cc21 [GSK-364735]
Output: 4

====

Test: AUC (0 to infinity) in human at 200 mg administered with fat meal as single dose
Type: ADME, organism-based
Set-up: dose 200 mg, time infinity
Conditions: plasma
Readout Name: AUC(0-inf) (ng·h/mL)
Numbers only here, please. The scale is ng·h/mL.

Task: Look up AUC(0-inf): `Cn1c(=O)c(C(=O)NCCO)c(O)c2ncc(Cc3ccc(F)cc3)cc21`
Output: 11000

====

Test: Apparent oral clearance in human at 200 mg administered with fat meal every 12 hrs for 8 days measured on day 8
Assay type: ADME, organism-based
Conditions: in vivo
Readout Name: CL/F (mL/min)
Numbers only here, please. The scale is mL/min.

Task: Look up CL/F: Cn1c(=O)c(C(=O)NCCO)c(O)c2ncc(Cc3ccc(F)cc3)cc21 [GSK-364735]
Output: 350
